Below, each entry is listed alongside its reported inhibition.
target: L-lactate dehydrogenase (Plasmodium falciparum (isolate CDC / Honduras))
testSummary: PfLDH activity inhibition – cell lysate, 3D7 strain, counter-screen for P. falciparum growth inhibition project (AID 2304);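 further: 0% = vehicle and 100% = reference inhibitor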
conditionNotes: P. falciparum 3D7 crude extract, LDH APAD/NBT absorbance; at 2 µM; active compounds read high
Active and inactive are the calls of the source. How the calls were made is not given here.

Q: # query: inhibition of entry COc1ccc(C(=O)Nc2cc(Br)c3c(c2)CNCC3)cc1C(F)(F)F
Ans: 8% (inactive)

Q: What would you report for Cn1cnc(CCNC(=O)c2ccc(-c3cccc(-c4nc5ccccc5[nH]4)c3)cc2)c1 ?
Ans: 2% (inactive)

Q: What would you report for Cc1[nH]c(C)c(-c2ccc(C#Cc3ccc(F)cc3F)cc2)c(=O)c1Br ?
Ans: -1% (inactive)

Further cases:
Q: # query: inhibition of entry Cc1cc(-c2ccc(CN3Cc4ccccc4C3)cc2)ccc1S(=O)(=O)NCCN1CCCC1
Ans: -4% (inactive)

Q: What would you report for Cc1cc(-c2cccc(CNC3CCN(C)CC3)c2)ccc1S(=O)(=O)NCc1ccccc1 ?
Ans: 4% (inactive)

Q: What would you report for COc1ccc2nccc(N(C)CC3(O)CCN(CCc4ccc5c(c4)OCCO5)CC3)c2n1 ?
Ans: -3% (inactive)

Q: What would you report for COCCN1CCC(N(Cc2ccc(-c3ccc(C(F)(F)F)cc3)cc2)C(=O)Cn2c(CCc3cccc(F)c3F)cc(=O)c3c2CCC3)CC1 ?
Ans: -5% (inactive)

Q: What would you report for COc1cc(Nc2nccn3c(-c4ccsc4)cnc23)cc(OC)c1OC ?
Ans: 3% (inactive)

Q: What would you report for O=C(c1ccc(-c2cnc3[nH]cc(-c4ccc(C(=O)N5CCOCC5)cc4)c3c2)cc1)N1CCOCC1 ?
Ans: -4% (inactive)

----------
target: L-lactate dehydrogenase (Plasmodium falciparum (isolate CDC / Honduras)) (UniProt Q27743)
Sequence (Q27743 whole entry, looked up): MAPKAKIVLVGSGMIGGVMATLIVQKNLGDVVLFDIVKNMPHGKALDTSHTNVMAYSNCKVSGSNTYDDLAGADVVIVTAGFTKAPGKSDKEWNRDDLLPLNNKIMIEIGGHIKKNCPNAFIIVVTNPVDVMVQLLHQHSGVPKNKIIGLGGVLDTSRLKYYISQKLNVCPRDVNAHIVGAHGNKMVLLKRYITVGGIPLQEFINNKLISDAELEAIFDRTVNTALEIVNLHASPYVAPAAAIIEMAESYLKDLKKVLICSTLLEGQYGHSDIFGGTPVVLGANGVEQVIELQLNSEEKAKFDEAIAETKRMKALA
testSummary: PfLDH activity inhibition – cell lysate, 3D7 strain, counter-screen for P. falciparum growth inhibition project (AID 2304);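 further: 0% = vehicle and 100% = reference inhibitor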
conditionNotes: P. falciparum 3D7 crude extract, LDH APAD/NBT absorbance; at 2 µM; active compounds read high
Below, each entry is listed alongside its reported inhibition.
Please respond with the number in % and leave the unit unwritten.

Consider the reported inhibition for these molecules:
Q: Give the reported inhibition for COc1cc(C(=O)N2CCOC(CCN3CCC(Cc4ccc(F)cc4)CC3)(c3ccc(Cl)c(Cl)c3)C2)cc(OC)c1OC (stereo not drawn) (system: L-lactate dehydrogenase (Plasmodium falciparum (isolate CDC / Honduras)) (UniProt Q27743)).
Ans: -5

Q: What would you report for O=C(NCc1cccc(F)c1)Nc1cccc(-c2cccc(-c3nc4ccccc4[nH]3)c2)c1 ?
Ans: -1

Q: What would you report for Cc1cc2nc(-c3ccc(C(=O)NCc4ccc(Cl)c(Cl)c4)cc3)[nH]c2cc1C ?
Ans: 1

Q: What would you report for O=C(c1cnn(-c2ccccc2)c1C(F)(F)F)N1CCN(c2ccnc3cc(Cl)ccc23)CC1 ?
Ans: 6

Q: What would you report for COc1ccc2nccc([C@@H](O)CN3CCC(NC(=O)C(c4cc5ccccc5o4)N4CCC(Cc5ccccc5)CC4)CC3)c2c1 (stereo partly drawn) ?
Ans: 0

Q: What would you report for COc1cccc(CNC(=O)c2cccc(-c3cccc(CN4CCC(N5CCCC5)CC4)c3)n2)c1 ?
Ans: 1

Q: What would you report for Cc1cc(C)c(-c2n[nH]c3c2C(c2cccc(Cl)c2)N(Cc2ccco2)C3=O)c(O)c1 (stereo not drawn) ?
Ans: -1

Q: What would you report for O=C(Nc1ccc(C(=O)Oc2ccc(-c3ccccc3)cc2)cc1)N[C@@H](Cc1ccc(O)cc1)C(=O)NC1CCN(Cc2ccc(O)cc2)C1 (stereo partly drawn) ?
Ans: 0

Lab note: next molecule to report on.
Q: Give the reported inhibition for CSCCC(C(=O)O)N1C(=O)c2ccccc2C1=O (stereo not drawn) (system: L-lactate dehydrogenase (Plasmodium falciparum (isolate CDC / Honduras)) (UniProt Q27743)).
Ans: -1

----------
target: Plasmodium falciparum protein kinase 6 (PK6, PF3D7_1337100)
testSummary: PfPK6 kinase inhibitors, biochemical, TCAMS library (AID 1159586)
conditionNotes: recombinant PfPK6, Kinase-Glo ATP depletion luminescence
Measured potencies and affinities stand elsewhere. Activity calls are given as the source filed them. How the calls were made is not given here.
observationType: outcome

Consider the reported outcome for these compounds:
Q: # query: outcome of entry CC(=O)c1ccc(-n2ccnc2)cc1
Ans: inactive

Q: What would you report for CN(C)CCOc1cc(NC(=O)Nc2ccc(Cl)cc2C(F)(F)F)ccc1I ?
Ans: inactive

Q: What would you report for Cc1ccc(Nc2ccnc3ccc(C(F)(F)F)cc23)cc1O ?
Ans: inactive

Q: What would you report for c1ccc(CNCc2cccc(-c3csc(-c4nc5ccccc5[nH]4)c3)c2)cc1 ?
Ans: inactive

Q: What would you report for Fc1ccc2[nH]c3c(NCCN4CCCCC4)ncnc3c2c1 ?
Ans: inactive

Lab note: next compound to report on.
Q: # query: outcome of entry CN1CCN(c2cccc(NC(=O)c3ccc(-c4ccc(C#N)cc4)cc3)c2)CC1
Ans: inactive

----------
testSummary: inhibition of 3D7 malaria parasite growth – strain 3D7 (AID 2306);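 further: 0% = DMSO wells and 100% = chloroquine plus artemisinin control wells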
conditionNotes: P. falciparum 3D7 erythrocytic growth, LDH absorbance, 72 h; at 2 µM; active compounds read high
Below, each entry is listed alongside its reported growth inhibition.
Please respond with the number in % and leave the unit unwritten.

Q: # query: growth inhibition of entry Nc1ncc(-c2ccsc2)cc1-c1nc2ccccc2[nH]1
Ans: 99

Further cases:
Q: # query: growth inhibition of entry COc1ccc2nc(C)cc(NN=Cc3cccc(F)c3)c2c1
Ans: 100

Q: What would you report for COc1ccc(CNCc2ccc(F)cc2)cc1-c1ccc(S(=O)(=O)NCCN2CCCC2)cc1 ?
Ans: 91

Q: What would you report for CCCCN1C(=O)C(c2ccccc2)(c2ccccc2)N=C1N ?
Ans: 87

Q: What would you report for O=c1cc(-c2ccc3ccccc3c2)[nH]c2ccccc12 ?
Ans: 81

Q: What would you report for CCOc1ccc(-c2nonc2NC(=O)c2ccco2)cc1OCC ?
Ans: 97

----------
testSummary: inhibition of 3D7 malaria parasite growth – strain 3D7 (AID 2306);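 further: 0% = DMSO wells and 100% = chloroquine plus artemisinin control wells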
conditionNotes: P. falciparum 3D7 erythrocytic growth, LDH absorbance, 72 h; at 2 µM; active compounds read high
Below, each entry is listed alongside its reported growth inhibition.
Please respond with the number in % and leave the unit unwritten.

Q: # query: growth inhibition of entry COCCOc1ccc(Nc2nccc(-c3c(-c4cccc(NC(=O)c5c(F)cccc5F)c4)nn4ccccc34)n2)cc1F
Ans: 90

Further cases:
Q: # query: growth inhibition of entry COc1ccc2ncc(F)c([C@H](O)CN3CCC(NCc4cc5c(cn4)OCCO5)CC3)c2c1
Ans: 101

Q: What would you report for COc1ccc(CCNc2nc(NCc3ccccc3)c3cc(OC)c(OC)cc3n2)cc1OC ?
Ans: 100

Q: What would you report for O=C(NCc1cccc(C(F)(F)F)c1)C1CCCN(C(=O)c2ccc(O)c(-c3ccc(Cl)c(Cl)c3)c2)C1 (stereo not drawn) ?
Ans: 94

Q: What would you report for O=C(CNC(=O)c1ccc(O)cc1)Nc1ccc(-c2cccc(-c3nc4ccc(C(F)(F)F)cc4[nH]3)c2)cc1 ?
Ans: 92

Q: What would you report for COC(=O)c1ccc(C(=O)NCCCCN2CCC(c3ccc4c(c3OC)CCCC4)CC2)cc1-c1ccc(C(F)(F)F)cc1 ?
Ans: 93

Q: What would you report for O=C(Nc1cccc(CN2CCCN(Cc3cccc(Cl)c3)CC2)c1)c1ccc(-c2ccccc2)cc1 ?
Ans: 86

Q: What would you report for CCN(CC)CCCC(C)Nc1c2ccccc2nc2ccc3ccccc3c12 (stereo not drawn) ?
Ans: 100

Q: What would you report for C[C@H](Cc1ccc(C[C@@H](C)NC[C@H](O)c2cccc(Cl)c2)cc1)NC[C@H](O)COc1ccccc1 ?
Ans: 96

Q: What would you report for CC=Cc1cc(Cc2cnc(N)nc2N)cc(CCC)c1OC ?
Ans: 97

Q: What would you report for CN1CCN(c2ccc(CNc3ccc4ncc(-c5ccc(OC(F)(F)F)cc5)n4n3)cc2)CC1 ?
Ans: 94

Q: What would you report for c1cc(CNC2Cc3ccc(-c4cccs4)cc3C2)cc(-n2ccnc2)c1 (stereo not drawn) ?
Ans: 100

----------
target: Calcium-dependent protein kinase 4 (Plasmodium falciparum (isolate 3D7)) (UniProt Q8IBS5)
Sequence (Q8IBS5 whole entry, looked up): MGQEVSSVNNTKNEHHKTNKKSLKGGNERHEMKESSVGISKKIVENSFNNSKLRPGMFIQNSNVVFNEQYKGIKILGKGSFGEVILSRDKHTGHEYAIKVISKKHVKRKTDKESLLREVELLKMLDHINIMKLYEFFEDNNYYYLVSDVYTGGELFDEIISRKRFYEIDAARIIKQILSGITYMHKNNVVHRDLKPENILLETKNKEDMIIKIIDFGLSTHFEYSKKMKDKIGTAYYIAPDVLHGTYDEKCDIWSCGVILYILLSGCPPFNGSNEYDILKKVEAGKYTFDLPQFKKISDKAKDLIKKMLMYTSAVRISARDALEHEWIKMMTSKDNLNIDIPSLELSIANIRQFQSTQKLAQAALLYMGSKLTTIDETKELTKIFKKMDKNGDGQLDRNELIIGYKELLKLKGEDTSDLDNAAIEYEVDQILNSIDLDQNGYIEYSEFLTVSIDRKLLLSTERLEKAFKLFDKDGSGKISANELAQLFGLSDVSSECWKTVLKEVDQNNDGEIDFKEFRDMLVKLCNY
testSummary: PfCDPK4 kinase inhibitors, biochemical, TCAMS library (AID 1159588)
conditionNotes: recombinant PfCDPK4, Kinase-Glo ATP depletion luminescence
Entries with a potency or affinity are not part of this list. Active and inactive are the calls of the source. Cut-off not given; nearly all actives show IC50 up to about 0.91 µM.
observationType: outcome

Q: # query: outcome of entry O=C(N[C@H]1CCN(Cc2ccc(OC3CCN(Cc4ccccc4)CC3)cc2)C1)c1ccc(Cl)c(Cl)c1
Ans: inactive

Q: What would you report for CC(C)CNCc1ccc(-c2cccc(CN(C(=O)NCCc3ccccc3)C3CCN(Cc4ccccc4)CC3)c2)cc1 ?
Ans: inactive

Q: What would you report for CC(CCCCC(=O)Nc1ccc(CC(C)NCCc2cccc(Cl)c2)cc1)NCCc1cccc(Cl)c1 (stereo not given) ?
Ans: inactive

Q: What would you report for O=C(C(=O)c1ccc(Nc2ccnc3cc(-c4ccccn4)ccc23)cc1)c1ccccc1 ?
Ans: inactive

Further cases:
Q: # query: outcome of entry Cc1[nH]c(C)c(-c2ccc(Oc3cccc(Cl)c3)cc2)c(=O)c1Br
Ans: inactive
